Hey, just so you know, these numbers are from paper PMC11855827.

tested on: C. elegans; conditions: Table S2, C. elegans SS assay, 110 μM, 0 h, averages of 4 data points
ENDPOINT_LABEL: Percentage of motility inhibition 0 h (%)
Output spec: scalar in %, unitless text.

Query: Return reported Percentage of motility inhibition 0 h. Input molecule: Cl.NCCS [Cysteamine (hydrochloride)]
Result: 23

Query: Specify measured Percentage of motility inhibition 0 h for O=c1ccoc2cc(O)ccc12 [7‐Hydroxy‐4H‐chromen‐4‐one] .
Result: 0

Query: Name the recorded Percentage of motility inhibition 0 h of the molecule listed here: `C/C(=C\C=C\[C@@]1(C)OC(=O)[C@]23CC=C(C(=O)O)CC[C@]2(O)[C@H]1CC3)C(=O)O`
Result: 0

Query: Please give measured Percentage of motility inhibition 0 h of the following entry: COc1ccc(-c2oc3c(CC=C(C)C)c(O[C@@H]4O[C@H](CO)[C@@H](O)[C@H](O)[C@H]4O)cc(O)c3c(=O)c2O[C@@H]2O[C@@H](C)[C@H](O)[C@@H](O[C@@H]3O[C@H](CO)[C@@H](O)[C@H](O)[C@H]3O)[C@H]2O)cc1 [Epimedin A1]
Result: 6

Query: Give the reported value of Percentage of motility inhibition 0 h for this record: `COc1ccc([C@@H]2CC(=O)c3c(O)cc(O[C@@H]4O[C@H](CO)[C@@H](O)[C@H](O)[C@H]4O)cc3O2)cc1`
Result: 1

Query: Using known records, supply Percentage of motility inhibition 0 h for `CC(/C=C/C=C(\C)C(=O)O[C@@H]1O[C@H](CO)[C@@H](O)[C@H](O)[C@H]1O)=C\C=C\C=C(C)\C=C\C=C(/C)C(=O)O[C@@H]1O[C@H](CO[C@@H]2O[C@H](CO)[C@@H](O)[C@H](O)[C@H]2O)[C@@H](O)[C@H](O)[C@H]1O`
Result: 27

Query: Identify Percentage of motility inhibition 0 h associated with the molecule `CC1(C)CCC[C@]2(C)[C@@H]1CC[C@@]13C[C@H](CC[C@H]12)[C@@](O)(CO)C3`
Result: 0

Query: Identify measured Percentage of motility inhibition 0 h associated with COC(=O)N[C@H](C(=O)N1CC2(CC2)C[C@H]1c1ncc(-c2ccc3c(c2)C(F)(F)c2cc(-c4ccc5nc([C@@H]6[C@H]7CC[C@H](C7)N6C(=O)[C@@H](NC(=O)OC)C(C)C)[nH]c5c4)ccc2-3)[nH]1)C(C)C.O=C(O)C(O)C(O)C(=O)O [Ledipasvir (D‐tartrate)]
Result: 34

Query: Find the measured Percentage of motility inhibition 0 h of COC(=O)C1=COC2OC3CC1C2C(C)O3 (centres unmarked) and report it.
Result: 11

Query: Look up Percentage of motility inhibition 0 h of CC(C)=CCC[C@](C)(O)[C@H]1CC[C@]2(C)[C@@H]1[C@H](O)C[C@@H]1[C@@]3(C)CC[C@H](O[C@@H]4O[C@H](CO)[C@@H](O)[C@H](O)[C@H]4O[C@@H]4O[C@H](CO)[C@@H](O)[C@H](O)[C@H]4O)C(C)(C)[C@@H]3CC[C@]12C [20(S)-Ginsenoside Rg3] and report it.
Result: 0

Query: Specify reported Percentage of motility inhibition 0 h for the molecule shown: `CC(=O)O[C@@H]1CC[C@@]2(C)[C@@H](CC[C@]3(C)[C@@H]2[C@H](O)C=C2[C@@H]4[C@@H](C)[C@H](C)CC[C@]4(C)CC[C@]23C)[C@@]1(C)C(=O)O`
Result: 24

Query: Input Cl.NC12CC3CC(CC(C3)C1)C2 [Amantadine (hydrochloride)] , output reported Percentage of motility inhibition 0 h.
Result: 42

Query: Note down Percentage of motility inhibition 0 h recorded for C=C1[C@H]2CC[C@@H]3[C@H]2C(C)(C)CCC[C@]13C [(+)-Longifolene]
Result: 3

Query: Entry CC(=O)O.CC(=O)O.CC[C@H](C)C[C@H](C)CCCCCCCCC(=O)N[C@H]1C[C@@H](O)[C@@H](NCCN)NC(=O)[C@@H]2[C@@H](O)CCN2C(=O)[C@H]([C@H](O)CCN)NC(=O)[C@H]([C@H](O)[C@@H](O)c2ccc(O)cc2)NC(=O)[C@@H]2C[C@@H](O)CN2C(=O)[C@H]([C@@H](C)O)NC1=O [Caspofungin (Acetate)] needs its Percentage of motility inhibition 0 h filled in; supply it.
Result: 27

Query: Give reported Percentage of motility inhibition 0 h value for CCn1cc(C(=O)[O-])c(=O)c2ccc(C)nc21.[Na+] [Nalidixic acid (sodium salt)]
Result: 0

Query: Give the reported value of Percentage of motility inhibition 0 h for this record: `COc1ccc(CCNC(=O)/C=C/c2ccc(O)c(O)c2)cc1`
Result: 0

Query: Determine from records and report Percentage of motility inhibition 0 h for CC1(C)C(=O)[C@]2(C)CCC1C2 (single isomer, unassigned; (-)) [(-)-Fenchone]
Result: 26

Query: Specify reported Percentage of motility inhibition 0 h for the molecule shown: COc1ccc2cc3[n+](cc2c1O)CCc1cc2c(cc1-3)OCO2.[Cl-] [Berberrubine (chloride)]
Result: 0

Query: Look up Percentage of motility inhibition 0 h of `CC[C@H]1[C@@H]2C[C@H]3[C@@H]4N(C)c5ccccc5[C@]45C[C@@H]([C@H]2[C@H]5O)N3[C@@H]1O` and report it.
Result: 13

Query: Annotate the molecule `CC1(C)CC[C@]2(C(=O)O)CC[C@]3(C)C(=CC[C@@H]4[C@@]5(C)C[C@H](O)[C@H](O)[C@@](C)(CO)[C@@H]5CC[C@]43C)[C@@H]2C1` with its measured Percentage of motility inhibition 0 h.
Result: 2

----------
test system: C. elegans; assay: microbe, parasite or virus in culture; details: Caenorhabditis elegans, 24 h, read-out: Percentage of motility inhibition 24 h, Table S2, C. elegans SS assay, 110 μM, 24 h, averages of 4 data points
Recorded inhibition at 110 µM split into classes lower (below 2%), middle (2% to below 10%), upper (10% or more)

| MOLECULE | GROUP_LABEL |
| --- | --- |
| COc1cnc(NS(=O)(=O)c2ccc(N)cc2)nc1 | middle |
| C=C1CCC2(C(C)C)CC12 (centres unmarked) | upper |
| C/C=C1\[C@H]2C=C(C)C[C@]1(N)c1ccc(=O)[nH]c1C2 | middle |
| C=C1C[C@]2(O)O[C@@]3(CC2=C(C)C)[C@@H](C)CC[C@@H]13 | upper |
| NNC(=O)c1ccncc1 | upper |

Query: Please classify: `CC1(C)C[C@H]2C3=CC[C@@H]4[C@@]5(C)CC[C@H](O)[C@](C)(CO)[C@@H]5CC[C@@]4(C)[C@]3(C)CC[C@@]2(C)[C@H](O)[C@@H]1O`
Result: middle

Query: Quick check: band for COc1cc2c(cc1OC)-c1c(C)c3ccc(OC)c(OC)c3c[n+]1CC2 [Dehydrocorydaline]
Result: lower

Query: # classify by inhibition at 110 µM band: `C[N+](C)(C)CCOP(=O)(O)OP(=O)([O-])OC[C@H]1O[C@@H](n2ccc(N)nc2=O)[C@H](O)[C@@H]1O`
Result: lower

Query: Would you mind sorting `O[C@H]1[C@H]2c3cc4c(cc3CN3CCC(=C[C@@H]1O)[C@H]23)OCO4` into the appropriate category?
Result: lower

Query: Where would `C=C1C(=O)[C@]23C[C@H]1C[C@@H](O)[C@H]2[C@@]12CO[C@@H](O)[C@@H]1C(C)(C)CC[C@@H]2OC3=O` land among the classes by reported inhibition at 110 µM?
Result: upper

----------
system: C. elegans; experiment: microbe, parasite or virus in culture; settings: Caenorhabditis elegans, 0 h, read-out: Percentage of motility inhibition 0 h, Table S2, C. elegans SS assay, 110 μM, 0 h, averages of 4 data points
Measured inhibition at 110 µM values are reported for all entries that follow.
Response body: numeric value in %, unit text excluded.

Worked examples follow.
| SMI | ENDPOINT_LABEL | UNIT_INFO | OBS_VALUE |
| --- | --- | --- | --- |
| Cc1ccnc(NS(=O)(=O)c2ccc(N)cc2)n1 | inhibition at 110 µM | % | 12 |
| COc1ncnc(NS(=O)(=O)c2ccc(N)cc2)c1OC | inhibition at 110 µM | % | 18 |
| Cc1cccc(C)c1OCC(=O)N[C@@H](Cc1ccccc1)[C@@H](O)C[C@H](Cc1ccccc1)NC(=O)[C@H](C(C)C)N1CCCNC1=O | inhibition at 110 µM | % | 17 |

Next:
Query: Specify inhibition at 110 µM for `COc1ccc(-c2cc(=O)c3c(OC)c(OC)c(OC)cc3o2)cc1OC` and stop.
Result: 0

----------
test system: C. elegans; settings: Table S2, C. elegans SS assay, 110 μM, 0 h, averages of 4 data points
ENDPOINT_LABEL: Percentage of motility inhibition 0 h

Solved cases below.
| COMPOUND | Percentage of motility inhibition 0 h |
| --- | --- |
| CC(C)[C@H](N)C(=O)OCCOCn1cnc2c(=O)nc(N)[nH]c21.Cl [Valacyclovir (hydrochloride)] | 38% |
| CC(=O)CC[C@@H]1[C@H]2CC(=C(C)C)C(=O)C[C@@]12C [Curcumenone] | 3% |
| C[C@H]1O[C@@H](O[C@H]2CC[C@@]3(C)[C@@H](CC[C@]4(C)[C@@H]3C=CC3=C5CC(C)(C)CC[C@]5(CO)[C@H](O)C[C@]34C)[C@]2(C)CO)[C@H](O)[C@@H](O)[C@H]1O [Prosaikogenin D] | 15% |
| COc1ccc2cc1Oc1ccc(cc1)C[C@H]1c3cc(c(OC)cc3CCN1C)Oc1c(O)c(OC)cc3c1[C@H](C2)N(C)CC3 [(R)‐Fangchinoline] | 44% |
| CO[C@H]1C[C@H](O[C@H]2[C@H](C)O[C@@H](O[C@@H]3/C(C)=C/C[C@@H]4C[C@@H](C[C@]5(C=C[C@H](C)[C@@H](C6CCCCC6)O5)O4)OC(=O)[C@@H]4C=C(C)[C@@H](O)[C@H]5OC/C(=C\C=C\[C@@H]3C)[C@]54O)C[C@@H]2OC)O[C@@H](C)[C@@H]1O [Doramectin] | 66% |

Next up:
Query: # return Percentage of motility inhibition 0 h for C[C@H]1CC[C@H]2[C@H](C)[C@@H]3CC[C@@H]4[C@@H](C[C@H]5[C@H]4C[C@@H](O)[C@H]4C[C@@H](O)CC[C@@]45C)[C@@H]3CN2C1 [Hupehenine] , test system: C. elegans
Result: 0%
